Taken from the Immune Epitope Database (IEDB).

Readings of pKd for the listed sequences
subject-of-test: HLA-A*31:01
assay-procedure: IEDB peptide-MHC binding, purified MHC/competitive/radioactivity; filed as Kd, often an IC50 or EC50 that approximates it; bounds were set here for any values at or beyond the usual limits of such assays
recorded-conditions: source organism: Vaccinia virus WR
pKd: −log10 of the molar value.

EFLHYCNSY = ≤ 4.42
GLTPEQKAY = ≤ 4.11
QIFNEDTSY = ≤ 4.11
PVYISQFSY = ≤ 4.59
LFKNLATSIY = ≤ 4.43

Now examine the next entry.
Challenge: Any idea what its pKd is? The sequence is `GIFVDTMSIY`
Response given: ≤ 4.15
